# runDescription: Selectivity index, ratio of IC50 for NRK-52E cells to ratio of IC50 for human A549 cells
# Assay type: toxicity
# assayContext: rat (NRK-52E), NRK-52E cells versus A549 cells, read-out: Selectivity Index
propertyMeasured: selectivity ratio
Respond using a number only.

samplesmiles=COc1cc(-c2nc3cc(C)ccc3[nH]2)ccc1OCC(=O)N1CCc2ccccc2C1 measuredresult=9.4

Switching to the query record.
Endpoint output: selectivity ratio of COc1cc(-c2nc3cc(F)ccc3[nH]2)ccc1OCC(=O)N1CCc2ccccc21 . Value?
14

---

Below is a list of entries, each paired with its recorded IC50 value.
# System: A549
# runDescription: Anticancer activity against human A549 cells assessed as inhibition in cell growth measured after 72 hrs by MTT assay
# Assay type: functional, cell-based
# assayContext: A549, 72 h

samplesmiles=COc1cc(-c2nc3cc(C)ccc3[nH]2)ccc1OCC(=O)N1CCc2ccccc2C1 measuredresult="5.5 µM"
samplesmiles=COc1cc(-c2nc3cc(C)ccc3[nH]2)ccc1OCC(=O)N1CCN(c2ncccn2)CC1 measuredresult="7.93 µM"

Endpoint output: IC50 of COc1cc(-c2nc3cc(F)ccc3[nH]2)ccc1OCC(=O)N1CCc2ccccc2C1 . Value?
> 20 µM

How about this compound: COc1cc(-c2nc3cc(F)ccc3[nH]2)ccc1OCC(=O)N1CCc2ccccc21
3.84 µM

How about this compound: COc1ccc2[nH]c(-c3ccc(OCC(=O)N4CCOCC4)c(OC)c3)nc2c1
> 20 µM
